FYI, the data here is from patent US4565865A.

# Tested on: Leptosphaeria salvinii
# Protocol Summary: Antifungal activity, MIC by serial dilution in agar
# Assay type: cell-based
# Study Conditions: Nakataea oryzae

| Compound | MIC, mg/L |
| --- | --- |
| CCCCCCCCCCCCCCNC(=O)OCCCOP(=O)([O-])OCC[N+](C)(C)C [Example 36] | 6.25 |
| CCC=CCC=CCC=CCCCCCCCNC(=O)OCCCOP(=O)([O-])OCC[N+](C)(C)C [Example 17] | 50 |
| CCCCCCCCCCCCCCNC(=O)OCC(COP(=O)(O)OCCN)OC (stereo not drawn) [Example 25] | 100 |
| CCCCCCCCCCCCNC(=O)OCCCOP(=O)([O-])OCC[N+](C)(C)C [Example 31] | 25 |
| CCCCCCCCCCCCCNC(=O)OCCCOP(=O)([O-])OCC[N+](C)(C)C [Example 23] | 12.5 |
| CCCCCCCCCCCCCCCCCNC(=O)OCCCOP(=O)([O-])OCC[N+](C)(C)C [Example 4] | 50 |

----------
# Tested on: Brewer's yeast
# Protocol Summary: Antifungal activity, MIC by serial dilution in agar
# Type: cell-based

| Compound | Result Operator | MIC (mg/L) |
| --- | --- | --- |
| CCCCCCCCCCCCCCNC(=O)OCCCOP(=O)([O-])OCC[N+](C)(C)C [Example 36] | = | 6.25 |
| CCCCCCCCCCCCNC(=O)OCCCOP(=O)([O-])OCC[N+](C)(C)C [Example 31] | = | 12.5 |
| CCCCCCCCCCCCCCNC(=O)OCC(COP(=O)(O)OCCN)OC (stereo not drawn) [Example 25] | = | 25 |
| CCCCCCCCCCCCCCCCCNC(=O)OCCCOP(=O)([O-])OCC[N+](C)(C)C [Example 4] | > | 100 |
| CCC=CCC=CCC=CCCCCCCCNC(=O)OCCCOP(=O)([O-])OCC[N+](C)(C)C [Example 17] | = | 100 |
| CCCCCCCCCCCCCNC(=O)OCCCOP(=O)([O-])OCC[N+](C)(C)C [Example 23] | = | 12.5 |

----------
# System: Red yeast
# Protocol Summary: Antifungal activity, MIC by serial dilution in agar
# Type: cell-based
# Study Conditions: 1% glucose bouillon agar
# Description: For the antifungal activity data shown in Table 2, various typical plant-disease-causing fungi are used as the test fungi and the minimum inhibitory concentration (MIC) are determined by the serial dilution technique using a 1% glucose bouillon agar medium.

| Molecule | Result Operator | MIC (µg/mL) |
| --- | --- | --- |
| CCCCCCCCCCCCCNC(=O)OCCCOP(=O)([O-])OCC[N+](C)(C)C [Example 23] | = | 12.5 |
| CCCCCCCCCCCCCCNC(=O)OCCCOP(=O)([O-])OCC[N+](C)(C)C [Example 36] | = | 25 |
| CCCCCCCCCCCCCCCCCNC(=O)OCCCOP(=O)([O-])OCC[N+](C)(C)C [Example 4] | > | 100 |
| CCC=CCC=CCC=CCCCCCCCNC(=O)OCCCOP(=O)([O-])OCC[N+](C)(C)C [Example 17] | = | 100 |
| CCCCCCCCCCCCCCNC(=O)OCC(COP(=O)([O-])OCC[N+](C)(C)C)OC (stereo not shown) [Example 26] | = | 25 |
| CCCCCCCCCCCCCCNC(=O)OCC(COP(=O)(O)OCCN)OC (stereo not shown) [Example 25] | = | 50 |
| CCCCCCCCCCCCNC(=O)OCCCOP(=O)([O-])OCC[N+](C)(C)C [Example 31] | = | 25 |

----------
# Tested on: Aspergillus
# Protocol Summary: Antifungal activity, MIC by serial dilution in agar
# Assay type: cell-based
# Study Conditions: 1% glucose bouillon agar

| Molecule | Experimental Target | Result Operator | MIC (µg/mL) |
| --- | --- | --- | --- |
| CCCCCCCCCCCCCCCCCNC(=O)OCCCOP(=O)([O-])OCC[N+](C)(C)C [Example 4] | Aspergillus | > | 100 |
| CCCCCCCCCCCCCCNC(=O)OCC(COP(=O)([O-])OCC[N+](C)(C)C)OC (stereo not shown) [Example 26] | Aspergillus | = | 12.5 |
| CCCCCCCCCCCCCNC(=O)OCCCOP(=O)([O-])OCC[N+](C)(C)C [Example 23] | Aspergillus | = | 12.5 |
| CCC=CCC=CCC=CCCCCCCCNC(=O)OCCCOP(=O)([O-])OCC[N+](C)(C)C [Example 17] | Aspergillus | = | 50 |
| CCCCCCCCCCCCCCNC(=O)OCCCOP(=O)([O-])OCC[N+](C)(C)C [Example 36] | Aspergillus | = | 12.5 |
| CCCCCCCCCCCCCCNC(=O)OCC(COP(=O)(O)OCCN)OC (stereo not shown) [Example 25] | Aspergillus | = | 25 |
| CCCCCCCCCCCCNC(=O)OCCCOP(=O)([O-])OCC[N+](C)(C)C [Example 31] | Aspergillus | = | 12.5 |

----------
# System: Penicillium
# Protocol Summary: Antifungal activity, MIC by serial dilution in agar
# Assay type: cell-based
# Study Conditions: 1% glucose bouillon agar

| Compound | Experimental Target | Result Operator | MIC, µg/mL |
| --- | --- | --- | --- |
| CCCCCCCCCCCCCCCCCNC(=O)OCCCOP(=O)([O-])OCC[N+](C)(C)C [Example 4] | Penicillium | > | 100 |
| CCCCCCCCCCCCCCNC(=O)OCCCOP(=O)([O-])OCC[N+](C)(C)C [Example 36] | Penicillium | = | 12.5 |
| CCCCCCCCCCCCCCNC(=O)OCC(COP(=O)([O-])OCC[N+](C)(C)C)OC (stereo not shown) [Example 26] | Penicillium | = | 12.5 |
| CCC=CCC=CCC=CCCCCCCCNC(=O)OCCCOP(=O)([O-])OCC[N+](C)(C)C [Example 17] | Penicillium | = | 50 |
| CCCCCCCCCCCCCNC(=O)OCCCOP(=O)([O-])OCC[N+](C)(C)C [Example 23] | Penicillium | = | 12.5 |
| CCCCCCCCCCCCCCNC(=O)OCC(COP(=O)(O)OCCN)OC (stereo not shown) [Example 25] | Penicillium | = | 25 |
| CCCCCCCCCCCCNC(=O)OCCCOP(=O)([O-])OCC[N+](C)(C)C [Example 31] | Penicillium | = | 12.5 |

----------
In this section, each of the compounds is paired with its reported MIC.
# Tested on: Tetrahymena pyriformis W

| Compound | MIC |
| --- | --- |
| CCCCCCCCCCCCCCNC(=O)OCC(COP(=O)(O)OCCN)OC (stereo not drawn) | ≤ 1 µg/mL |
| CCCCC/C=C\C/C=C\CCCCCCCNC(=O)OCCCOP(=O)([O-])OCC[N+](C)(C)C | 2 µg/mL |
| CCCCCCCCCCCCCCCCCCNC(=O)OCCOP(=O)([O-])OCC[N+](C)(C)C | 1 to 2 µg/mL |
| CCCCCCCCCCCCNC(=O)OCCCOP(=O)(O)OCCN | ≤ 1 µg/mL |
| CCCCCCCCCCNC(=O)OCC(COP(=O)(O)OCCN)OC (stereo not drawn) | 2 µg/mL |
| CCC=CCC=CCC=CCCCCCCCNC(=O)OCCCOP(=O)([O-])OCC[N+](C)(C)C | ≤ 1 µg/mL |
| CCCCCCCCCCCCCCCCCCNC(=O)OCC(COP(=O)([O-])OCC[N+](C)(C)C)OC (stereo not drawn) | 2 to 4 µg/mL |
| COC1=C(OC)C(=O)C(CCCCCCCCCNC(=O)OCCCOP(=O)([O-])OCC[N+](C)(C)C)=C(C)C1=O | 40 µg/mL |
| CCCCCCCCCCCCCNC(=O)OCCCOP(=O)([O-])OCC[N+](C)(C)C | ≤ 0.1 µg/mL |
| CCCCCCCCCCCCNC(=O)OCCCOP(=O)([O-])OCC[N+](C)(C)C | ≤ 1 µg/mL |
| CCCCCCCCCCNC(=O)OCC(COP(=O)([O-])OCC[N+](C)(C)C)OC (stereo not drawn) | 2 µg/mL |
| CCCCCCCCCCCCCCCCCNC(=O)OCCCOP(=O)([O-])OCC[N+](C)(C)C | 1 to 2 µg/mL |
| CCCCCCCCCCCCCCCCCCNC(=O)OCC(COP(=O)([O-])OCC[n+]1ccsc1)OC (stereo not drawn) | 2 to 4 µg/mL |
| CCCCCCCCCCCCCCNC(=O)OCC(COP(=O)([O-])OCC[N+](C)(C)C)OC (stereo not drawn) | 0.2 µg/mL |
| CCCCCCCCCCCCCCCCCCNC(=O)OCC(COP(=O)([O-])OCC[n+]1ccccc1)OC (stereo not drawn) | 4 µg/mL |
| CCCCC/C=C\C/C=C\CCCCCCCNC(=O)OCCCOP(=O)(O)OCCN | ≤ 1 µg/mL |
| CCCCCCCCCCCCCCNC(=O)OCCCOP(=O)([O-])OCC[N+](C)(C)C | ≤ 1 µg/mL |
| CCCCC/C=C\C/C=C\CCCCCCCNC(=O)OCCOP(=O)([O-])OCC[N+](C)(C)C | 2 µg/mL |
